- Substrate: BHET
- ASSAY SUMMARY: Proxy for plastic degradation [HPLC-UV] (mmol)
- TEST PARAMETERS: pH 8
REPORTED METRIC: Proxy for plastic degradation
One number for each entry.

Requested read-out: Proxy for plastic degradation. Entry: unnamed (protein) MTKVNFQNKEEKRIVGILSIPKGKGPYPAVIFCHGLGSSKESPLIKTVSKKVRQVGFATFTFDCLGSRESDPYHSTAGITKRLSDLDAAIDFLAKHPRVDAERMGLYGHSLGGSVALVQASRDKRIKTAVLISPVIDFRRTGLRPINKKHMDEWDKREEILTINRKNKIVFRIPWDFFVDITSYDFVDIARKVACPVMIIHGTQDSLVPIQQSQILCQNLKNSELISLPWQKHFTRTTRKRKEAIVNSIFWFNKYLKKSATPSN
0.1

Values were extracted from the PETadex activity labels (doi:10.1093/ismejo/wraf068).
